# Test system: SN12C renal
# ASSAY PROTOCOL: NCI-60 one-dose screen, 48 h (100 = growth as untreated, 0 = no growth, -100 = all killed)
# RUN PARAMETERS: 10 µM unless noted
About 83,000 compounds went through this panel and 20% of them were active in at least one assay; those are over-represented in the sample as a whole.
Please respond with MET when measured growth is strictly beneath 90%, and with NOT MET in all other cases.

The examples below pair each entry with its known result.
[Q] Dear colleague, could you confirm whether growth of COc1ccc(Nc2ccnc(NCCCNc3ccnc4cc(Cl)ccc34)n2)cc1 falls below 90%? Thanks.
[A] MET

[Q] In the record for O=C(/C=C/c1ccccc1)CC(c1ccccc1)N1CCOCC1 (stereo not given) , is growth less than 90%?
[A] NOT MET

[Q] Threshold test, growth < 90%: CC(=O)Oc1c(C)c(OC(C)=O)c2c(c1C(C)=O)OC1CC(=O)C(C(C)=O)=C(O)C21C (stereo not given)
[A] NOT MET

[Q] For ClC1=C(Cl)C(=C2C(Cl)=C(Cl)C(Cl)=C2Cl)C(Cl)=C1Cl , is the recorded growth below the cut-off of 90%?
[A] NOT MET

[Q] State whether 90% exceeds growth recorded for NC(=Nc1ccccc1)SCCCCSC(N)=Nc1ccccc1 .
[A] MET

[Q] Answer whether the compound Cc1nn(-c2ccc(Cl)cc2)c2nc3c(nc12)C(=O)c1ccccc1-3 has growth strictly less than 90%
[A] MET

***
[Q] hey, is growth for O=C(Nc1ccc(Nc2ccncc2)cc1)c1ccc(Nc2ccnc3ccc([N+](=O)[O-])cc23)cc1[N+](=O)[O-] lower than 90% or not?
[A] MET

[Q] Decide: growth of Cc1ccc2c(c1)O/C(=C\c1ccc([N+](=O)[O-])o1)C2=O strictly below 90%?
[A] MET

[Q] Input O=C(CCc1nnc(SCc2ccccc2)s1)c1nc2ccccc2[nH]1 ; condition: growth strictly below 90%. Does it hold?
[A] NOT MET

[Q] Identify whether the compound CC(C)c1ccc(C(=O)Nc2sc3c(CN(C)C)c(O)ccc3c2C(N)=O)cc1 records growth below 90%.
[A] MET
